B1: PLK2 (parent)
chain: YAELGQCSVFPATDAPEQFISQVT

variants of: B1; test: protein stability index of a GFP-peptide fusion (GPS, HEK-293T) (PSI 1-6); higher = more stable; details: c terminus: a fixed tail appended;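 further: lentivirally expressed fusions sorted by FACS into six bins by GFP to DsRed ratio, PSI derived from sequencing read proportions per bin multiplied by bin number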
Outcome: 1.0 for protein stability index of at least 2; 0.0 for anything lower.

mutantCode: A15M
assignedLabel: 1.0

We now examine a further variant.
Reported protein stability index reaches at least 2 for T13S ?
1.0
